Molecular target: T1, human CaMKII-α hub domain (human, UniProt Q9UQM7 345-475)
T1 construct: Ca2+/calmodulin-dependent protein kinase II alpha, human, hub domain; residues 345-475 are stated for the crystallization construct; The limits are stated only for the crystallization construct; also called the hub; isolated hub; source: E. coli BL21, purified (Ni-NTA, Q-FF, Superose 6); not shown: His6, N-terminal, cleaved; copies: 12 or 14
T1 sequence (looked up): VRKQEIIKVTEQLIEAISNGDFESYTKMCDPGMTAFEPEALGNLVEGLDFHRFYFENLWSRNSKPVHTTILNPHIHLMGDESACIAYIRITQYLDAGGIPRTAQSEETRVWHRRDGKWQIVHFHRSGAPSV
Assay: fluorescence polarisation; competition: 2 nM BODIPY labelled peptide bound to 30 μM hub, unlabeled peptide 0-500 μM added; KD from a non-linear fit assuming one peptide site per subunit and equal KD of labelled and unlabeled peptide
Settings: both partners purified
Square brackets hold non-standard residues; d marks the D form. Ends that are not written are not given here. pT = C[C@@H](OP(=O)(O)O)[C@H](N)C(=O)O
Consider the following binders; for each one, report its Kd.

INPUT: # input binder: LKKFNARRKLKGAIL[pT]TMLAC (human CaMKII-α, residues 290-309; added C-terminal cysteine; also called peptide phosphorylated on Thr 305; source: synthetic peptide, bought: Elim Biopharm, HPLC purified) [Peptide C, unlabeled (human CaMKII-α 290-309 plus C-terminal cysteine, phosphorylated on Thr 305)] ; wanted: its Kd
OUTPUT: ~60 µM

INPUT: Item under review: LKKFNARRKLKGAILTTMLA (also called the unphosphorylated peptide; wild type peptide; source: synthetic peptide, gift of Leta Nutt (St. Jude Children's Research Hospital), HPLC purified) [Peptide B (human CaMKII-α 290-309, unphosphorylated, unlabeled)] . Reported Kd?
OUTPUT: ~90 µM

INPUT: So what does the record say about Kd for LKKFNARRKLKGAILT[pT]MLAC (human CaMKII-α, residues 290-309; added C-terminal cysteine; also called peptide phosphorylated on Thr 306; source: synthetic peptide, bought: Elim Biopharm, HPLC purified) [Peptide D, unlabeled (human CaMKII-α 290-309 plus C-terminal cysteine, phosphorylated on Thr 306)] ?
OUTPUT: ~50 µM
